Hello, the source for this data is PubChem BioAssay AID1259422, in case you need it.

Consider the following compounds and their measured inhibition readings.
- assay-explanation: TEAD-YAP interaction inhibition, primary screen, TEAD-YAP interaction inhibitor project, luminescence, HEK-TIYL cells (AID 1259422);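 further: 0% = median of test compound wells and 100% = reference inhibitor wells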
- assay-conditions: TEAD-Gal4/YAP UAS-luciferase luminescence, at 9.12 µM, hits give high values
The campaign covered roughly 640,000 compounds. About 9,300 (1.5%) were called active. The sample holds actives, similar compounds and a random draw of the others, so the mix is not that of the screen.
The reply should contain only the number, in %.

Worked cases, inhibition given:
INSERT INTO results (compound, observed) VALUES
  ('Cc1cc(C)cc(C(=O)NCC(=O)OCC(=O)NC(N)=O)c1', 1.58),
  ('Cc1ccc(NC(=O)CN2CCN(c3ccc(Cl)cc3)CC2)cc1Br', -5.18),
  ('CCOc1cc(CN2CCC(C(=O)NCCc3ccccc3)CC2)ccc1O', -8.29),
  ('CC(=O)Nc1nc(C)c(-c2csc(Nc3ccc(C)cc3)n2)s1', 1.48),
  ('Cc1nc(N)sc1-c1csc(Nc2ccc(O)cc2)n1', 2.78);

Kindly consider the entry below.
get_value(item= CC1CCCC/C1=N/NC(=O)CNc1ccc(Cl)cc1Br (stereo unspecified) , readout=inhibition) returns 3.05
